assay explanation: NCI Yeast Anticancer Drug Screen. Data for the sgs1 mgt1 strain (AID 161);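 also: 0% = growth of cultures given vehicle only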
experimental context: S. cerevisiae sgs1 mgt1 strain, at 50.0 µM, active compounds read high
The panel holds about 79,000 compounds, 15% with a hit somewhere; the sample as a whole holds those more often.
# growth inhibition annotations
Provide the reading as a plain figure in %.

Worked examples follow.
What value of growth inhibition has been reported for the following molecule? O=[N+]([O-])c1ccc(/C(=N/Nc2ccccc2)c2ccc(Cl)cc2)cc1 1.65

Moving on to CC(=O)C(C(C)=O)C(C(C)=O)C(C)=O.[Cu] -21.1

Moving on to CC(=O)N(C(C)=O)C(CS)C(=O)O (configuration not stated) 2.85

Moving on to O=S(=O)(CCN1CCCCC1)c1ccc(F)cc1 3.05

More entries:
What value of growth inhibition has been reported for the following molecule? O=Nc1c(-c2ccccc2)nnc(-c2ccccc2)c1N=O -0.3

Moving on to Cc1ccccc1NCC(C)O (configuration not stated) -5.9

Moving on to CCCC(CCC)(C(=O)OCC)C(=O)OCC -1.3

Moving on to N#C/C(=C/c1cccc2ccccc12)C(=O)c1ccccc1 3.6

Moving on to Nc1[nH]c(=O)nc2c1cnn2Cc1ccccc1 -14.2

Moving on to CC(C)(C)C(O)CC(O)(C(F)(F)F)C(F)(F)F (configuration not stated) -12.8
